We begin with a simple list: items and their reported Cmax.
protocol: Cmax in male cynomolgus monkey at 150 mg/kg, po BID measured on day 8
Assay type: ADME, organism-based, Macaca fascicularis
Design: route oral, dose 150 mg/kg
assay-setup: in vivo
Please make sure the unit comes right after the number.

Known Cmax results, listed for orientation:
// CC(C)C[C@H](N)C(=O)N[C@H](Cc1cn(C)c2ccccc12)C(=O)O : Cmax value = 192 nM

// Cn1cc(C[C@@H](N)C(=O)O)c2ccccc21 : Cmax value = 93400 nM

Now consider a different molecule.
// CCOC(=O)[C@@H](Cc1cn(C)c2ccccc12)NC(=O)[C@@H](N)CC(C)C.Cl : Cmax value = 17.1 nM
